Values were extracted from PubChem BioAssay AID2060909.

test system: 362531-283-R-J2-PDC complex spheroid viability; experiment: Anticancer human tumor 362531-283-R-J2-PDC patient-derived colon adenocarcinoma cell line growth inhibition [RAS]; settings: curve of first compound; second compound 10 µM;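 also: spheroids exposed to the agents for 7 days before readout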
Parameter IC50: see the listing below.
experimental.endpoint: IC50

[[record]]
compound = "CC(=O)OC12COC1CC(O)C1(C)C(=O)C(O)C3=C(C)C(OC(=O)C(O)C(NC(=O)OC(C)(C)C)c4ccccc4)CC(O)(C(OC(=O)c4ccccc4)C21)C3(C)C (centres undefined) + C#Cc1c(F)ccc2cc(O)cc(-c3ncc4c(N5CC6CCC(C5)N6)nc(OCC56CCCN5CC(F)C6)nc4c3F)c12"
experimental_endpoint = "IC50"
value = "< 31.6 nM"

[[record]]
compound = "CCc1c2c(nc3ccc(O)cc13)-c1cc3c(c(=O)n1C2)COC(=O)[C@]3(O)CC + C#Cc1c(F)ccc2cc(O)cc(-c3ncc4c(N5CC6CCC(C5)N6)nc(OCC56CCCN5CC(F)C6)nc4c3F)c12"
experimental_endpoint = "IC50"
value = "< 0.949 nM"

[[record]]
compound = "O=C(c1ccc(F)c(F)c1Nc1ccc(I)cc1F)N1CC(O)([C@@H]2CCCCN2)C1 + C#Cc1c(F)ccc2cc(O)cc(-c3ncc4c(N5CC6CCC(C5)N6)nc(OCC56CCCN5CC(F)C6)nc4c3F)c12"
experimental_endpoint = "IC50"
value = "< 3.16 nM"

[[record]]
compound = "CC(C)NCC(C(=O)N1CCN(c2ncnc3c2C(C)CC3O)CC1)c1ccc(Cl)cc1 (centres undefined) + C#Cc1c(F)ccc2cc(O)cc(-c3ncc4c(N5CC6CCC(C5)N6)nc(OCC56CCCN5CC(F)C6)nc4c3F)c12"
experimental_endpoint = "IC50"
value = "< 31.6 nM"

[[record]]
compound = "C[C@@H](NC(=O)c1ncnc(N)c1Cl)c1ncc(C(=O)Nc2cc(C(F)(F)F)c(Cl)cn2)s1 + C#Cc1c(F)ccc2cc(O)cc(-c3ncc4c(N5CC6CCC(C5)N6)nc(OCC56CCCN5CC(F)C6)nc4c3F)c12"
experimental_endpoint = "IC50"
value = "3610 nM"

[[record]]
compound = "CCC(CC)c1cc(NC2CCC(N)C2)n2nccc2n1 (centres undefined) + C#Cc1c(F)ccc2cc(O)cc(-c3ncc4c(N5CC6CCC(C5)N6)nc(OCC56CCCN5CC(F)C6)nc4c3F)c12"
experimental_endpoint = "IC50"
value = "338 nM"

[[record]]
compound = "CC(C)n1nc(-c2ccc3oc(N)nc3c2)c2c(N)ncnc21 + C#Cc1c(F)ccc2cc(O)cc(-c3ncc4c(N5CC6CCC(C5)N6)nc(OCC56CCCN5CC(F)C6)nc4c3F)c12"
experimental_endpoint = "IC50"
value = "< 0.316 nM"

[[record]]
compound = "C=CC(=O)Nc1cc(Nc2nccc(-c3cn(C)c4ccccc34)n2)c(OC)cc1N(C)CCN(C)C + C#Cc1c(F)ccc2cc(O)cc(-c3ncc4c(N5CC6CCC(C5)N6)nc(OCC56CCCN5CC(F)C6)nc4c3F)c12"
experimental_endpoint = "IC50"
value = "5.45 nM"

[[record]]
compound = "NC1c2ccccc2OC12CCN(c1cnc3c(N4CCCc5ncccc54)n[nH]c3n1)CC2 (centres undefined) + C#Cc1c(F)ccc2cc(O)cc(-c3ncc4c(N5CC6CCC(C5)N6)nc(OCC56CCCN5CC(F)C6)nc4c3F)c12"
experimental_endpoint = "IC50"
value = "< 31.6 nM"

